meta.source: patent US8680275B2

# targetSystem: human orexin-2 receptor (Homo sapiens (Human))
# Sequence (O43614 whole entry): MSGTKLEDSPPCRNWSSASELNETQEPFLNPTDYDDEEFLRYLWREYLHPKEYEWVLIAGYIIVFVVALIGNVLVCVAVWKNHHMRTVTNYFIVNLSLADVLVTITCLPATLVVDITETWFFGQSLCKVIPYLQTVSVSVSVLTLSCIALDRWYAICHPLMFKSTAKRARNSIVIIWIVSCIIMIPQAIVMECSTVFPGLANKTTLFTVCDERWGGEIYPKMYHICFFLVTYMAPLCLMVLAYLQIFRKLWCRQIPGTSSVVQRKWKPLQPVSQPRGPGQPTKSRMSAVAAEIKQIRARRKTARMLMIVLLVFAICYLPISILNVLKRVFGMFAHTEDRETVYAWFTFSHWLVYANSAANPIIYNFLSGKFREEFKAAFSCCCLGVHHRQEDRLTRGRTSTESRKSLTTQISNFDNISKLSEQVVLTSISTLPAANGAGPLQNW
# measurementProtocol: Human orexin 2 receptor radioligand binding ([3H]-EMPA competition)
# runConditions: HEK293 cells stably expressing human orexin-2 receptor; [3H]-EMPA 5 nM final; read-out: OR-2 Ki
// returns Criterion not met unless Ki is strictly below 100 nM, in which case Criterion met

Cc1nccnc1N1C[C@@H]2CCN(C(=O)c3ccc(F)cc3-n3nccn3)C[C@@H]21 :: Criterion not met
CN(C)c1ccnc(N2C[C@@H]3CCN(C(=O)c4cccc(F)c4-c4ncccn4)C[C@@H]32)c1 :: Criterion not met
Cc1cncc(N2C[C@@H]3CCN(C(=O)c4c(F)cccc4-n4nccn4)C[C@@H]32)n1 :: Criterion not met
O=C(c1cc(F)ccc1-n1nccn1)N1CC[C@H]2CN(c3cc(C(F)(F)F)ccn3)[C@H]2C1 :: Criterion met
Cc1nc(C(=O)N2CC3CN(c4nccc(-c5ccccc5)n4)C3C2)c(-c2ccccc2F)s1 (stereo not shown) :: Criterion not met
Cc1cc(C)nc(N2C[C@@H]3CCN(C(=O)c4ccccc4-c4ccccc4)C[C@@H]32)n1 :: Criterion met
Cc1ccnc(N2CC3CN(C(=O)c4ccccc4-c4ccccc4)CC32)n1 (stereo not shown) :: Criterion not met
Cc1cccc(N2C[C@@H]3CCN(C(=O)c4ccccc4-n4nccn4)C[C@@H]32)n1 :: Criterion met
Cc1nccnc1N1C[C@@H]2CCN(C(=O)c3ccccc3-n3nccn3)C[C@@H]21 :: Criterion not met

-- ask Given COc1cccc(OC)c1C(=O)N1CCC2CN(c3cnc4ccccc4n3)C2C1 (stereo not shown) , is recorded Ki strictly lower than 100 nM?
-- reply Criterion not met

###

# targetSystem: UniProtKB O43613
# measurementProtocol: Human orexin 1 receptor radioligand binding ([3H]-SB674042 competition)
# runConditions: CHO cells stably expressing human orexin 1 receptor; [3H]-SB674042 4 nM final; read-out: OR-1 Ki
quantity: pKi
pKi (log units): -log10 of the concentration in mol/L.

Example entries begin here.
O=C(c1cccc(F)c1-n1nccn1)N1CC[C@H]2CN(c3cc(C(F)(F)F)ccn3)[C@H]2C1 :: 5.48
Cc1cc(C)nc(N2C[C@@H]3CCN(C(=O)c4cn[nH]c4-c4ccccc4)C[C@@H]32)n1 :: 5.00
Cc1cnc(N2C[C@@H]3CCN(C(=O)c4ccc(F)cc4-n4nccn4)C[C@@H]32)cn1 :: 5.00
Cc1cncc(N2C[C@@H]3CCN(C(=O)c4cccc(F)c4-n4nccn4)C[C@@H]32)n1 :: 5.00
O=C(c1ccccc1-c1cccs1)N1CC2CN(c3nccc(-c4ccccc4)n3)C2C1 (stereo not shown) :: 7.41
Cc1cc(C)nc(N2C[C@@H]3CCN(C(=O)c4cccc(C)c4-n4cccn4)C[C@@H]32)n1 :: 6.26

-- ask Query (compound): CNc1cc(N2C[C@@H]3CCN(C(=O)c4cc(F)ccc4-n4nccn4)C[C@@H]32)ncn1 ; field requested: pKi
-- reply 5.00

###

# targetSystem: human orexin 1 receptor (Homo sapiens (Human))
# Sequence (O43613 whole entry): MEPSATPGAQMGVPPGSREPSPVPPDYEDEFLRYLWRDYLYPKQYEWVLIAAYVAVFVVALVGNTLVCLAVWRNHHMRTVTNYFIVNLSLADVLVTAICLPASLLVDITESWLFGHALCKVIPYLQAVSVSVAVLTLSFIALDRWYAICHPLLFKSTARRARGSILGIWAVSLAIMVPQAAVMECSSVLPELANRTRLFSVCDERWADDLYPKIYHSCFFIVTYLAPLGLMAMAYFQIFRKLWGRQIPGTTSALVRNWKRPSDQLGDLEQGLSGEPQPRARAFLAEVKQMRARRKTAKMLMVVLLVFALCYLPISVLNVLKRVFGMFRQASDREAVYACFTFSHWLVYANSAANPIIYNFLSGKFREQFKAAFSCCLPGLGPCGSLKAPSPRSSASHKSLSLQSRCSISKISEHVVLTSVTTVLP
# measurementProtocol: Human orexin 1 receptor radioligand binding ([3H]-SB674042 competition)
# runConditions: CHO cells stably expressing human orexin 1 receptor; [3H]-SB674042 4 nM final; read-out: OR-1 Ki
quantity: Ki (µM)
Answer in µM, number only, no unit symbol.

Example entries begin here.
Cc1cc(C)nc(N2CC3CN(C(=O)c4ccccc4-c4cccs4)CC32)n1 (stereo not shown) [Example 57] :: 3.57
O=C(c1cc(F)ccc1-n1nccn1)N1CC[C@H]2CN(c3cc(C(F)(F)F)ccn3)[C@H]2C1 [Example 130] :: 1.72

Please find the next compound below.
-- ask Query (compound): COc1ccc(C(=O)N2CC[C@H]3CN(c4cc(C)cc(C)n4)[C@H]3C2)c(-n2nccn2)c1 [Example 149] ; field requested: Ki
-- reply 10
